Can you tell me percent of cells in the CD123-Fc positive gate for the items I'm about to list?
# Assay target: T1, CD123-Fc recombinant protein (human, UniProt P26951 19-305)
# T1 construct: construct not described; not shown: Fc part
# T1 sequence (looked up): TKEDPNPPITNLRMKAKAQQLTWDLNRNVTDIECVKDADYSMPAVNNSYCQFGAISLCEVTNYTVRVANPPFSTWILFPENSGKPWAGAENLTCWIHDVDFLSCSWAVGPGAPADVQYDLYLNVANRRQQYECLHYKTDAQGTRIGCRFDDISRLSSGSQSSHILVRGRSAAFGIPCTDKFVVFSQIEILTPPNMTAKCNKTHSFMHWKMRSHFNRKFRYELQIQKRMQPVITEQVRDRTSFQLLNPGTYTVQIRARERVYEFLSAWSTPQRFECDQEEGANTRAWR
# Experimental protocol: flow cytometry of T cells electroporated with CAR mRNA, stained with CD123-Fc + PE-anti-hIgG-Fc; Mock 1.68
One number for each entry, in %.

# input Note down percent of cells in the CD123-Fc positive gate recorded for anti-CD123 scFv-C17 (scFv, On mRNA-electroporated T cells as CAR) scFv: QSALTQPASVSGSLGQSITISCTGTSSDVGTYDYVSWYQQHPGKAPKLMIYDVTYRPSGVSHRFSGSKSGNTASLTISGLQADDEADYYCQQYNNWPPRYTFGQGTKVEIKGGGGSGGGGSGGGGSQVQLVQSGAEVEKPGASVKLSCTASGYNFNSYYMHWVRLTPGQGLEWMGLINPTNGRTTYAQKFQGRVTMTGDTSTRTVYLALSSLRSEDSALYYCARGSPPHIFDPDFDYWGQGTLVTVSS
# output 97.5

# input Note down percent of cells in the CD123-Fc positive gate recorded for anti-CD123 scFv-C1 (scFv, On mRNA-electroporated T cells as CAR (hinge to CD3-zeta)) scFv: QSALTQPASVSGSPGQSITISCTGTSSDIGAYNYVSWYQQHPGKAPKLIIYDVSHRPSGVSNRFSGSKSGNTASLTISGLQSEDEADYYCSSDTNNNTLVFGVGTKLTVLGGGGSGGGGSGGGGSEVHLVESGGGVVQPGRSLRLSCAASGFTFSSYGMHWVRQAPGKGLEWVAVIWYDGSNKYYADSVKGRFTISRDNSKNTLYLQMNSLRAEDTAVYYCARDRDGFFLPMYYFDYWGQGTLVTVSS
# output 53.6

Please find the next binder below.
# input Note down percent of cells in the CD123-Fc positive gate recorded for anti-CD123 scFv-C3 (scFv, On mRNA-electroporated T cells as CAR) scFv: AIQMTQSPSSLSASVGDRVTITCRASQGIGTYLAWFQQKPGKAPKSLIYAASNLQSGVPSKFSGSGSGTDFTLTISNLQPEDFATYYCQQYKGYPLTFGGGTKLEIKGGGGSGGGGSGGGGSQVQLVQSGAEVKKPGSSVKVSCKASGGTFSSYAISWVRQAPGQGLEWMGGIIPIFGTANYAQKFQGRVTITADESTSTAYMELSSLRSEDTAVYYCARDSGWFGPRYYFDYWGQGTLVTVSS
# output 84.7
